Listed here: items and their measured EC50.
# Tested on: MM1.S (multiple myeloma) cells
# experiment_summary: In vitro cell proliferation, MM1.S multiple myeloma cells
# Type: cell-based
# condition: MM1.S cells, 72 hours, CELL TITER GLO; read-out: Prolif MM1S ATP (EC50)
Write the value in µM as a bare number.

INSERT INTO results (compound, attribute_measured, readout_unit, numeric_readout) VALUES
  ('Cn1ncc(NC(=O)c2nc(-c3c(F)cccc3F)sc2N)c1C12CCC(O)C(CC1)O2 (single isomer, unassigned) [Example 109]', 'EC50', 'µM', 9.2);

Okay, next one:
Fill in: EC50 of Cn1ncc(NC(=O)c2nc(-c3c(F)cccc3F)sc2N)c1C12CCC(O)C(CC1)O2 (single isomer, unassigned) [Example 110] is ___
2.4

---

# Tested on: MM1.S (multiple myeloma) cells
# experiment_summary: In vitro cell proliferation, MM1.S multiple myeloma cells;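 also: cells cultured in RPMI with 10% FBS and 2 mM L-Glutamine, seeded in 384-well plates, exposed to compound, cell viability measured by luminescence after CellTiter-Glo addition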
# Type: cell-based
# condition: Homo sapiens, MM1.S, 72 h, MM1.S cells, 72 hours, CELL TITER GLO; read-out: Prolif MM1S ATP (EC50)
attribute_measured: EC50 (nM)
Write the value in nM as a bare number.

Example molecules with recorded EC50:
INSERT INTO results (molecule, readout_unit, numeric_readout) VALUES
  ('Cn1ncc(NC(=O)c2csc(-c3cc[nH]n3)n2)c1[C@@H]1CC[C@@H](N)[C@H](F)CO1 [Example 379]', 'nM', 2900),
  ('CO[C@@H]1CO[C@H](c2c(NC(=O)c3csc(-c4ncccc4C)n3)cnn2C)CC[C@H]1N [Example 348]', 'nM', 1000),
  ('Cn1ncc(NC(=O)c2csc(-c3c(F)ccc(C4CC4)c3F)n2)c1[C@@H]1CC[C@@H](N)[C@H](F)CO1 [Example 363]', 'nM', 937);

Okay, next one:
Fill in: EC50 of CC(C)C(=O)c1cc(F)c(-c2nc(C(=O)Nc3cnn(C)c3[C@@H]3CC[C@@H](N)[C@H](F)CO3)cs2)c(F)c1 [Example 367] is ___
5400

---

Listed here: items and their measured Ki.
# study_system: UniProtKB P11309
# experiment_summary: biochemical
# Assay type: biochemical
# condition: 20 pM PIM1, 1 μM FAM-peptide, 10 μM ATP, 90 minutes at room temperature; read-out: PIM1 LC3K (KI)
Write the value in nM as a bare number.

INSERT INTO measurements (molecule, numeric_readout) VALUES
  ('Cn1ncc(NC(=O)c2nc(-c3c(F)cccc3Cl)sc2N)c1[C@@H]1CC[C@@H](N)[C@H](F)CO1 [Example 328]', 0.036),
  ('Cn1ncc(NC(=O)c2csc(-c3cccc(F)c3F)n2)c1[C@@H]1CC[C@@H](N)[C@@H](F)CO1 [Example 245]', 0.104),
  ('Cn1ncc(NC(=O)c2nc(-c3cccc(Cl)c3F)sc2N)c1[C@@H]1CC[C@@H](N)[C@H](F)CO1 [Example 338]', 0.007);

Okay, next one:
Checklist item: Ki tested on UniProtKB P11309, entry Cn1ncc(NC(=O)c2nc(-c3c(F)cccc3F)sc2N)c1[C@@H]1CC[C@@H](CN)O1 [Example 172] , value?
0.15

---

# study_system: PIM1 (Homo sapiens (Human), UniProt P11309)
# Sequence (P11309 whole entry): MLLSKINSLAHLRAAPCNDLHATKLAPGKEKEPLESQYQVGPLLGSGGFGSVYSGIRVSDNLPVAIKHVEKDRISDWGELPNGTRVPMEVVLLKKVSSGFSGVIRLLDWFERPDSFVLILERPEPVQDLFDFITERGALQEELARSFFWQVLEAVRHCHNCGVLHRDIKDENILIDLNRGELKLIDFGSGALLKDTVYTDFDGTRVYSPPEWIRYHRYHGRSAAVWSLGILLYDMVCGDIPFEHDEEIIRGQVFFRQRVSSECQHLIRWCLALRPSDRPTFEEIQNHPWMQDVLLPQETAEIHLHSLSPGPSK
# experiment_summary: biochemical
# Assay type: biochemical
# condition: 20 pM PIM1, 1 μM FAM-peptide, 10 μM ATP, 90 minutes at room temperature; read-out: PIM1 LC3K (KI)
attribute_measured: Ki (nM)
Write the value in nM as a bare number.

INSERT INTO results (compound, readout_unit, numeric_readout) VALUES
  ('Cn1ncc(NC(=O)c2ccc(F)c(-c3cccc(F)c3Cl)n2)c1[C@@H]1CC[C@@H](N)[C@H](F)CO1 [Example 227]', 'nM', 0.57),
  ('C[C@@H]1CC(O)CC[C@H](c2c(NC(=O)c3nc(-c4c(F)cccc4F)sc3N)cnn2C)O1 (stereo partly shown) [Example 108]', 'nM', 0.049),
  ('Cn1ncc(NC(=O)c2csc(-c3ccncc3F)n2)c1[C@@H]1CC[C@@H](N)[C@H](F)CO1 [Example 240]', 'nM', 0.34);

Fill in: Ki of Cn1ncc(NC(=O)c2csc(-c3c(F)cc(C(C)(C)O)cc3F)n2)c1[C@@H]1CC[C@@H](N)[C@H](F)CO1 [Example 297] is ___
0.021

Also need CN(C)C(=O)c1cc(F)c(-c2nc(C(=O)Nc3cnn(C)c3[C@@H]3CC[C@@H](N)[C@H](F)CO3)cs2)c(F)c1 [Example 354] , thanks.
0.083

Also need Cn1ncc(NC(=O)c2nc(-c3c(F)cccc3F)sc2N)c1C1CC[C@@H](N)[C@@H](F)CO1 (stereo partly shown) [Example 129] , thanks.
0.006

Also need CO[C@@H]1C[C@@H](c2c(NC(=O)c3nc(-c4c(F)cccc4F)sc3N)cnn2C)OCC[C@H]1N [Example 136] , thanks.
0.057
